All figures here come from ChEMBL document CHEMBL6134884.

Assay: Aqueous solubility of the compound at pH 2
Type: physicochemical
Settings: aqueous solution
In this section we review reported solubility values for a set of compounds.

C[C@H]1CCCCN1C(=O)c1nc(C(=O)NCC(C)(C)O)sc1-c1ccc(C(O)(C(F)(F)F)C(F)(F)F)cc1C(F)F
< 4 µM
Cc1cc(C(O)(C(F)(F)F)C(F)(F)F)ccc1-c1sc(C(=O)NCC(C)(C)O)nc1C(=O)N1CCCC[C@@H]1C
< 4 µM
C[C@H]1CCCN1C(=O)c1nc(C(=O)NCC(C)(C)O)sc1-c1ccc(C(O)(C(F)(F)F)C(F)(F)F)cc1Cl
6.3 µM

Quote solubility reported for CCN(CC)C(=O)c1nc(C(=O)N2C[C@H](O)C[C@H](O)C2)sc1-c1ccc(C(O)(C(F)(F)F)C(F)(F)F)c(Cl)c1Cl please.
52 µM

Quote solubility reported for C[C@H]1C[C@@H](F)CCN1C(=O)c1nc(C(=O)NCC(C)(C)O)sc1-c1ccc(C(O)(C(F)(F)F)C(F)(F)F)c(Cl)c1Cl please.
< 4 µM

Quote solubility reported for CCN(CC)C(=O)c1nc(C(=O)NCC(C)(C)O)sc1-c1ccc(C(O)(C(F)(F)F)C(F)(F)F)c(Cl)c1Cl please.
< 4 µM

Quote solubility reported for C[C@H]1CCCCN1C(=O)c1nc(C(=O)NCC(C)(C)O)sc1-c1ccc(C(O)(C(F)(F)F)C(F)(F)F)cc1Cl please.
< 4 µM

Quote solubility reported for CC(C)(O)CNC(=O)c1nc(C(=O)N2CCC(F)CC2)c(-c2ccc(C(O)(C(F)(F)F)C(F)(F)F)c(Cl)c2Cl)s1 please.
< 4 µM

Quote solubility reported for C[C@H]1CCCN1C(=O)c1nc(C(=O)NCC(C)(C)O)sc1-c1ccc(C(O)(C(F)(F)F)C(F)(F)F)cc1C(F)F please.
12 µM

Quote solubility reported for C[C@H]1CC(F)(F)CN1C(=O)c1nc(C(=O)NCC(C)(C)O)sc1-c1ccc(C(O)(C(F)(F)F)C(F)(F)F)c(Cl)c1Cl please.
< 4 µM

Quote solubility reported for C[C@H]1CCCN1C(=O)c1nc(C(=O)NCC(C)(C)O)sc1-c1ccc(C(O)(C(F)(F)F)C(F)(F)F)c(Cl)c1Cl please.
< 4 µM

Quote solubility reported for Cc1cc(C(O)(C(F)(F)F)C(F)(F)F)ccc1-c1sc(C(=O)NCC(C)(C)O)nc1C(=O)N1CCC[C@@H]1C please.
35 µM

---

Assay: Aqueous solubility of the compound at pH 7
Assay type: physicochemical
Conditions: aqueous solution
In this section we review reported solubility values for a set of compounds.

Illustrative cases are given below, each with its answer.
C[C@H]1CCCN1C(=O)c1nc(C(=O)NCC(C)(C)O)sc1-c1ccc(C(O)(C(F)(F)F)C(F)(F)F)cc1Cl
< 4 µM
Cc1cc(C(O)(C(F)(F)F)C(F)(F)F)ccc1-c1sc(C(=O)NCC(C)(C)O)nc1C(=O)N1CCCC[C@@H]1C
< 4 µM

Quote solubility reported for C[C@H]1CCCN1C(=O)c1nc(C(=O)NCC(C)(C)O)sc1-c1ccc(C(O)(C(F)(F)F)C(F)(F)F)cc1C(F)F please.
13 µM

Quote solubility reported for CCN(CC)C(=O)c1nc(C(=O)N2C[C@H](O)C[C@H](O)C2)sc1-c1ccc(C(O)(C(F)(F)F)C(F)(F)F)c(Cl)c1Cl please.
41 µM

Quote solubility reported for C[C@H]1CCCCN1C(=O)c1nc(C(=O)NCC(C)(C)O)sc1-c1ccc(C(O)(C(F)(F)F)C(F)(F)F)cc1C(F)F please.
< 4 µM

Quote solubility reported for CC(C)(O)CNC(=O)c1nc(C(=O)N2CCC(F)CC2)c(-c2ccc(C(O)(C(F)(F)F)C(F)(F)F)c(Cl)c2Cl)s1 please.
< 4 µM

Quote solubility reported for CCN(CC)C(=O)c1nc(C(=O)NCC(C)(C)O)sc1-c1ccc(C(O)(C(F)(F)F)C(F)(F)F)c(Cl)c1Cl please.
< 4 µM

Quote solubility reported for C[C@H]1CC(F)(F)CN1C(=O)c1nc(C(=O)NCC(C)(C)O)sc1-c1ccc(C(O)(C(F)(F)F)C(F)(F)F)c(Cl)c1Cl please.
< 4 µM

Quote solubility reported for C[C@H]1CCCCN1C(=O)c1nc(C(=O)NCC(C)(C)O)sc1-c1ccc(C(O)(C(F)(F)F)C(F)(F)F)cc1Cl please.
< 4 µM
